System: K24384-001-R-PDC complex spheroid viability;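 note: spheroids exposed to agents for seven days before luminescence viability reading; 100% = DMSO vehicle control viability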
Assay: Anticancer human tumor K24384-001-R-PDC patient-derived pancreatic adenocarcinoma cell line growth inhibition
Details: second compound 1 µM; first compound 3.16 µM; stronger effect = lower value
Property: viability, T/C (%)
// return numeric value only (unit: %, not printed)

Below, 5 molecules whose answers are already recorded.
molecule="O=C(c1cc(Cc2n[nH]c(=O)c3ccccc23)ccc1F)N1CCN(C(=O)C2CC2)CC1 + NC1CC1c1ccc(-c2cccc(O)c2)cc1" measured_number=66.6
molecule="CC1(C)CCC(CN2CCN(c3ccc(C(=O)NS(=O)(=O)c4ccc(NCC5CCOCC5)c([N+](=O)[O-])c4)c(Oc4cnc5[nH]ccc5c4)c3)CC2)=C(c2ccc(Cl)cc2)C1 + NC1CC1c1ccc(-c2cccc(O)c2)cc1" measured_number=45.7
molecule="CC(C)c1c(-c2ccccc2)nc2c(C#N)c[nH]n2c1=O + NC1CC1c1ccc(-c2cccc(O)c2)cc1" measured_number=70.1
molecule="COc1ccc([C@@H](O)c2cc(-c3ncnc4cc(N5CCOCC5)ccc34)c(F)cc2Cl)nn1 + NC1CC1c1ccc(-c2cccc(O)c2)cc1" measured_number=28.1
molecule="CC1COCCN1c1cc(C2(S(C)(=N)=O)CC2)nc(-c2ccnc3[nH]ccc23)n1 (stereo unspecified) + NC1CCC(NC2CC2c2ccccc2)CC1" measured_number=44

Kindly consider the entry below.
O=C(c1cc(Cc2n[nH]c(=O)c3ccccc23)ccc1F)N1CCN(C(=O)C2CC2)CC1 + NC1CCC(NC2CC2c2ccccc2)CC1 has a reported viability, T/C of 75.2
